- Test system: RSK1 (Homo sapiens, UniProt Q15418)
- Sequence (Q15418 whole entry, species assumed): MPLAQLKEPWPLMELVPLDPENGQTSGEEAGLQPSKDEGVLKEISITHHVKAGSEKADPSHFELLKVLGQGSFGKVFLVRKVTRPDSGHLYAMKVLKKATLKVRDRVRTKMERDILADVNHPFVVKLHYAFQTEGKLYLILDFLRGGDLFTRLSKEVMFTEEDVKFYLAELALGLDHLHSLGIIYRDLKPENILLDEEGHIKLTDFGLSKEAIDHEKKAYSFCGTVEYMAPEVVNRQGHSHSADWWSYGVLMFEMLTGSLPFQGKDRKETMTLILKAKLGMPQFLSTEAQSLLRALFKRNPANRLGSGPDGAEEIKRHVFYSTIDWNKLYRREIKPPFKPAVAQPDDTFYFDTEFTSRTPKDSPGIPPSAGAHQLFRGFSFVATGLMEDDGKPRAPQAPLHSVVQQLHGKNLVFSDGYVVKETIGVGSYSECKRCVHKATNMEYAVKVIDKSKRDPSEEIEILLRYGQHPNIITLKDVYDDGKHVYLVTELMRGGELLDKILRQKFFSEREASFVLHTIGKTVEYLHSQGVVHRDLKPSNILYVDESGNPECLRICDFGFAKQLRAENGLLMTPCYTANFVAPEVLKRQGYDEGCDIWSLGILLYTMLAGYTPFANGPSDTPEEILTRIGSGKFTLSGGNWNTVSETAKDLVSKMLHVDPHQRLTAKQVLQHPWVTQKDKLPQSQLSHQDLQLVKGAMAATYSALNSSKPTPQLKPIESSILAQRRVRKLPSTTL
pIC50: −log10 of the molar value.
Observation type: pIC50

Kindly indicate its recorded pIC50. Item: CN1CCN(c2ccc(Nc3ncc4c(n3)N3c5ccccc5CC3C(=O)N4C)cc2)CC1 (centres unmarked)
6.00 to 6.60

Kindly indicate its recorded pIC50. Item: COc1cc(C(=O)N2CCC(N3CCN(C)CC3)CC2)ccc1Nc1ncc2c(n1)n1c(cc3ccccc31)c(=O)n2C
6.00 to 6.60

Kindly indicate its recorded pIC50. Item: COc1cc(N2CCC(O)CC2)ccc1Nc1ncc2c(n1)n1c(cc3ccccc31)c(=O)n2C
5.30 to 6.00

Kindly indicate its recorded pIC50. Item: COc1cc(C2CCN(C)CC2)ccc1Nc1ncc2c(n1)n1c(cc3ccccc31)c(=O)n2C
6.60 to 7.30

Kindly indicate its recorded pIC50. Item: CN1CCN(c2ccc(Nc3ncc4c(n3)n3c(cc5ccccc53)c(=O)n4C)cc2C(F)(F)F)CC1
5.30 to 6.00

====

- Test system: MERTK (Homo sapiens, UniProt Q12866)
- Sequence (Q12866 21-999, species assumed): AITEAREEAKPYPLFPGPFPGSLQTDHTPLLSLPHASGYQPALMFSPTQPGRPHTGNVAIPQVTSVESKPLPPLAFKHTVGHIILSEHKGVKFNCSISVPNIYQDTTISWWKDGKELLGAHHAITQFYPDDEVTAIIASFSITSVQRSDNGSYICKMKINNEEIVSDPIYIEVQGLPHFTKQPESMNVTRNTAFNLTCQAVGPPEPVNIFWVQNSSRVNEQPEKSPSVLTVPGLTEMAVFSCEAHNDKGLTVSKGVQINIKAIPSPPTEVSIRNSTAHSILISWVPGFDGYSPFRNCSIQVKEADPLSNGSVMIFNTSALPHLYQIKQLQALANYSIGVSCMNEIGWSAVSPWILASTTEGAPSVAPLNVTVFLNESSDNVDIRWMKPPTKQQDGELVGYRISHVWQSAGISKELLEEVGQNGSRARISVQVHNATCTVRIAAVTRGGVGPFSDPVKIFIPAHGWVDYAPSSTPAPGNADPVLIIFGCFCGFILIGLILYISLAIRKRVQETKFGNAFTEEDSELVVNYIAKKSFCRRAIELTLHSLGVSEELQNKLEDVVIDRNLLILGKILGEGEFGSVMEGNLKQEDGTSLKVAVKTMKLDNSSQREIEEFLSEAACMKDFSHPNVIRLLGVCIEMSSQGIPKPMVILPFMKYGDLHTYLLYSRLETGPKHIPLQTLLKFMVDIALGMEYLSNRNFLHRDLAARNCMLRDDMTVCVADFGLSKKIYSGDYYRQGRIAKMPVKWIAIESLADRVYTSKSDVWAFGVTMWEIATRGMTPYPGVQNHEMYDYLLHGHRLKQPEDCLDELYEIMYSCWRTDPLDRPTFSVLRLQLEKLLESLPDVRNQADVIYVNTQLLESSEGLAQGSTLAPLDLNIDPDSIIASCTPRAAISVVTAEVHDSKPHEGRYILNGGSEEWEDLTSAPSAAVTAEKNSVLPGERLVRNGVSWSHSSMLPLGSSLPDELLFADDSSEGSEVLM
- Assay name: kinase inhibition, MERTK
- Type: biochemical
pIC50: −log10 of the molar value.
Observation type: pIC50

State pIC50 on MERTK (Homo sapiens, UniProt Q12866). Entry: COc1cc(C(=O)N2CCC(N3CCN(C)CC3)CC2)ccc1Nc1ncc2c(n1)n1c(cc3ccccc31)c(=O)n2C [Compound I-4]
≤ 5.30

====

- Test system: DMPK (Homo sapiens)
- Sequence (Q09013 1-629): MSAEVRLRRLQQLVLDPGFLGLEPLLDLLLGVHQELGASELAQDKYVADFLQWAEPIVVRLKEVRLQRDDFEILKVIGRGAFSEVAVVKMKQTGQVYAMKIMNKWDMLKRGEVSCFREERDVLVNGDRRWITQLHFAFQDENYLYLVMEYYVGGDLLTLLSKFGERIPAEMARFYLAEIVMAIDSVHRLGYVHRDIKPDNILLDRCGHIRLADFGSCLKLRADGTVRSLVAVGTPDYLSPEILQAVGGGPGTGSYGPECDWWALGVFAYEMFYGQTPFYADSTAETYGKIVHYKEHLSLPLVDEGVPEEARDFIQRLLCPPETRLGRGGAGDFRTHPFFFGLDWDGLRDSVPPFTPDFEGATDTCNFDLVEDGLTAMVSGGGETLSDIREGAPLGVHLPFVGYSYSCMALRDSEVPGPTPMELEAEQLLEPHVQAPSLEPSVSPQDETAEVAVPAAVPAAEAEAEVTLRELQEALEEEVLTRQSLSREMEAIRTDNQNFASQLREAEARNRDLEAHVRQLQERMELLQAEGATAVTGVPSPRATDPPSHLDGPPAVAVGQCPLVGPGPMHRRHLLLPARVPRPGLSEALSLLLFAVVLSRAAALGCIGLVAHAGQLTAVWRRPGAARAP
- Assay name: kinase inhibition, DMPK
- Format: biochemical
pIC50: −log10 of the molar value.
Could you please report measured pIC50 for the items listed next?

Kindly indicate its recorded pIC50. Item: Cn1c(=O)c2cc3ccccc3n2c2nc(Nc3cc(N4CCOCC4)cc(N4CCOCC4)c3)ncc21
6.00 to 6.60

Kindly indicate its recorded pIC50. Item: CCN1CCN(c2ccc(Nc3ncc4c(n3)n3c(cc5ccccc53)c(=O)n4C)c(OC)c2)CC1
6.00 to 6.60

Kindly indicate its recorded pIC50. Item: COc1cc(C(=O)N2CCN(C)CC2)ccc1Nc1ncc2c(n1)n1c(cc3ccccc31)c(=O)n2C
5.30 to 6.00

Kindly indicate its recorded pIC50. Item: Cn1c(=O)c2cc3ccccc3n2c2nc(Nc3cnn(CCN4CCOCC4)c3)ncc21
6.00 to 6.60

Kindly indicate its recorded pIC50. Item: Cn1c(=O)c2cc3ccccc3n2c2nc(Nc3ccc(N4CCOCC4)nc3)ncc21
6.00 to 6.60

Kindly indicate its recorded pIC50. Item: COc1cc(N2CCC(N3CCN(C)CC3)CC2)ccc1Nc1ncc2c(n1)n1c(cc3ccccc31)c(=O)n2C
5.30 to 6.00
